// cross-study collection: pKi for Histamine H3 receptor (Homo sapiens, UniProt Q9Y5N1)
Quick note: pKi values are minus log10 of concentrations in mol/L.

In: What pKi appears in the records for this compound with Histamine H3 receptor (Homo sapiens, UniProt Q9Y5N1)? c1ccn(Cc2ccc(COc3ccc(CN4CCCC4)cc3)cc2)c1
Out: 7.80

In: Lab request: please report pKi under test system Histamine H3 receptor (Homo sapiens, UniProt Q9Y5N1) for CC(C)N1CCN(Cc2ccc(C(CCN(C)C)Oc3ccc(Cl)c(Cl)c3)cc2)CC1 (centres unmarked)
Out: 8.30

In: What is its pKi for Histamine H3 receptor (Homo sapiens, UniProt Q9Y5N1)? Entry: CC1CCn2cc(-c3ccc(CCCCN4CCCCC4)cc3)nc2C1 (centres unmarked)
Out: 7.57

In: Checklist item: pKi tested on Histamine H3 receptor (Homo sapiens, UniProt Q9Y5N1), entry CC(C)N1CCN(C(=O)c2ccc(OC(CCN(C)C)c3ccc(C(F)(F)F)cc3)cc2)CC1 (centres unmarked) , value?
Out: 9.00

In: Entry COc1ccc(C2CN(C)Cc3cc(OC[C@@H]4CNCCO4)ccc32)cc1 (some centres unmarked) , system Histamine H3 receptor (Homo sapiens, UniProt Q9Y5N1): what pKi was measured?
Out: 6.63

In: pKi of COc1ccc(C2CNCc3cc(OCCCN4CCCCC4)ccc32)cc1 (centres unmarked) on Histamine H3 receptor (Homo sapiens, UniProt Q9Y5N1)?
Out: 9.00

In: Entry CSc1ccc(C2CN(C)Cc3cc(OC4CCN(CCC(F)(F)F)CC4)ccc32)cc1 (centres unmarked) , system Histamine H3 receptor (Homo sapiens, UniProt Q9Y5N1): what pKi was measured?
Out: 6.89

In: Which pKi is reported with Histamine H3 receptor (Homo sapiens, UniProt Q9Y5N1) for this entry: CSc1ccc(Oc2ccc(C#CCCN3CCCCC3)cc2CN(C)C(=O)OC(C)(C)C)cc1 ?
Out: 7.34

In: GET /values?readout=pKi&system=Histamine H3 receptor (Homo sapiens, UniProt Q9Y5N1)&item= CN1Cc2cc(OCCCN3CCC(F)CC3)ccc2C(c2ccc(Cl)cc2)C1 (centres unmarked)
Out: 8.00

In: Please tell me: pKi of CN(C)CCCC1(c2ccc(F)cc2)OCc2cc(CN3CCN(C)CC3)ccc21 (centres unmarked) , system Histamine H3 receptor (Homo sapiens, UniProt Q9Y5N1)?
Out: 6.81

In: GET /values?readout=pKi&system=Histamine H3 receptor (Homo sapiens, UniProt Q9Y5N1)&item= COc1ccc(C2CN(C)Cc3cc(OCCCN(C)C(C)C)ccc32)cc1 (centres unmarked)
Out: 8.40

In: Request: pKi, test system Histamine H3 receptor (Homo sapiens, UniProt Q9Y5N1), entry CN1Cc2cc(OCCCN3CCC(F)CC3)ccc2C(c2ccc(-n3ccnc3)nc2)C1 (centres unmarked)
Out: 8.52

In: Write down the reported pKi of CSc1nc2cc(F)ccc2n1C1CCN(C(=O)C2CCN(Cc3ccnc(N)c3)CC2)CC1 , test system: Histamine H3 receptor (Homo sapiens, UniProt Q9Y5N1).
Out: 9.00

In: So what pKi did CCCc1ccc(C(=O)N2CCN(C3CCC3)CC2)cc1 get with Histamine H3 receptor (Homo sapiens, UniProt Q9Y5N1)?
Out: 7.51

In: Requested read-out pKi, target or system Histamine H3 receptor (Homo sapiens, UniProt Q9Y5N1), entry CSc1ccc(C2CN(C)Cc3cc(OCCCN4CCC(F)(F)CC4)ccc32)cc1 (centres unmarked)
Out: 7.66

In: Please state recorded pKi (tested on Histamine H3 receptor (Homo sapiens, UniProt Q9Y5N1)) of CCNCCCOc1ccc2c(c1)CN(C)CC2c1ccc(OC)cc1 (centres unmarked)
Out: 7.70

In: Recall the recorded pKi for CSc1ccc(C2CN(C)Cc3cc(OCCCN4CCOCC4)c(C)cc32)cc1 (centres unmarked) with Histamine H3 receptor (Homo sapiens, UniProt Q9Y5N1) and state it.
Out: 7.82

In: # get_value(readout= pKi, system= Histamine H3 receptor (Homo sapiens, UniProt Q9Y5N1)) for COc1ccc(C2CN(C)Cc3cc(OCCCN4CCN(c5ccc(C#N)cc5)CC4)ccc32)cc1 (centres unmarked)
Out: 6.86

In: pKi of C=CCN1CCN(CCCOc2ccc3c(c2)CN(C)CC3c2ccc(OC)cc2)CC1 (centres unmarked) on Histamine H3 receptor (Homo sapiens, UniProt Q9Y5N1)?
Out: 7.43

In: Given the entry CC(C)N1CCN(C(=O)c2ccc(C(CCN(C)C)Oc3ccc(C(F)(F)F)cc3)cc2)CC1 (centres unmarked) , what pKi was observed with Histamine H3 receptor (Homo sapiens, UniProt Q9Y5N1)?
Out: 8.70

In: Hello, I am looking for reported pKi with Histamine H3 receptor (Homo sapiens, UniProt Q9Y5N1) for CCN(CC)CCCNc1ccc(-c2cn3cccc(C)c3n2)cc1 . Could you help?
Out: 8.05

In: Return pKi measured with Histamine H3 receptor (Homo sapiens, UniProt Q9Y5N1) given this compound: CN(C)CCCOc1ccc(-c2cc3ccccc3[nH]2)cc1
Out: 6.30
